This collection of values is drawn from PubChem BioAssay.

# experiment_description: inhibitors of poly I:C-induced TLR3 signaling, primary screen, cell-based, poly I:C stimulus, luciferase, 10K MLSCN set (AID 602277)
# condition_set: HEK293-TLR3 RL24 IRF3 luciferase reporter, at 10 µM, hits give high values
So basically, the class depends on measured inhibition, and the ranges are low class = under 10%, middle class = from 10% up to 20%, high class = 20% and over

A selection of reference data follows.
[
  {
    "compound": "COC(=O)C1=C(C)NC(C)=C(C(=O)OC)C1c1ccccc1[N+](=O)[O-]",
    "classification": "middle class"
  },
  {
    "compound": "O=C(O)Cc1ccc(-c2ccccc2)cc1",
    "classification": "high class"
  },
  {
    "compound": "Cc1ccc(-n2c(N)c(C(N)=O)sc2=S)cc1",
    "classification": "middle class"
  },
  {
    "compound": "Cc1ccc(-c2nnc(-c3cccc(Br)c3)o2)cc1",
    "classification": "low class"
  },
  {
    "compound": "O=C(CCNNC(=O)c1ccncc1)NCc1ccccc1",
    "classification": "high class"
  }
]

Query string: Into which category would you place COc1ccc(CNc2oc(COc3ccccc3Cl)nc2C#N)cc1 ?
Result string: low class

Query string: Which class does O=C(NCc1ccco1)c1cnn2c(C(F)(F)F)cc(-c3ccco3)nc12 fall in?
Result string: high class

Query string: Place this compound in its band: CCN(CC)CCCN1C(=O)C(=O)/C(=C(/O)c2ccccc2)C1c1ccccn1 (stereo not given)
Result string: low class

Query string: Which category fits this record: CCN(CC)CCOC(=O)C1(C2CCCCC2)CCCCC1
Result string: high class

Query string: Category of OCC(O)CN1CCN(c2ccccc2)CC1 (stereo not given) , please.
Result string: high class

Query string: Which category fits this record: CCOC(=O)c1ccc(N=Cc2nc(-c3ccccc3)oc2OC(C)=O)cc1
Result string: middle class

Query string: Kindly identify the class of COc1ccc(C2/C(=C(/O)c3ccc(OC(C)C)cc3)C(=O)C(=O)N2CCCN2CCOCC2)cc1 (stereo not given) .
Result string: middle class

Query string: Consider CN(C)c1ccc(C=NCC2(O)CCOC(C)(C)C2)cc1 (stereo not given) . To which inhibition class does it belong?
Result string: middle class
